The entries below come with measured IC50 values attached.
# System: HepG2 hepatoma cell
# method notes: MTT anti-proliferative assay, HepG2
# Format: cell-based, human
# applied conditions: MTT, 48 h; read-out: IC50 HepG-2
measure name: IC50

record smiles	measure name	observed result
N#C/C(=C\c1ccccc1)c1ccc(C(F)(F)F)cc1	IC50	> 100 µM
CCCOc1ccc(/C=C(\C#N)c2cccc(OC(F)(F)F)c2)cc1	IC50	> 100 µM
Cc1cccc(/C=C(\C#N)c2ccc(C(F)(F)F)cc2)c1	IC50	> 100 µM
N#C/C(=C\c1ccc(Br)cc1)c1ccc(OC(F)(F)F)cc1	IC50	24.3 µM
N#C/C(=C\c1ccccc1)c1ccccc1OC(F)(F)F	IC50	> 100 µM

###

Recorded IC50 for the following compounds
# Test system: SGC-7901 early differentiation gastric cancer cell
# method notes: MTT anti-proliferative assay, SGC-7901
# Assay type: cell-based, human
# applied conditions: MTT, 48 h

compound	test target	IC50
COc1cc(/C=C(\C#N)c2ccc(C(F)(F)F)cc2)cc(OC)c1OC [Compound 1f2u]	SGC-7901 early differentiation gastric cancer cell	> 100 µM
N#C/C(=C\c1ccco1)c1ccc(C(F)(F)F)cc1 [Compound 1f3a]	SGC-7901 early differentiation gastric cancer cell	> 100 µM
N#C/C(=C\c1ccc(Br)cc1)c1cccc(OC(F)(F)F)c1 [Compound 1b2d]	SGC-7901 early differentiation gastric cancer cell	21.9 µM
N#C/C(=C\c1ccc(Br)cc1)c1ccccc1OC(F)(F)F [Compound 1c2c]	SGC-7901 early differentiation gastric cancer cell	> 100 µM
Cc1cc(C)c(/C=C(\C#N)c2ccc(C(F)(F)F)cc2)c(C)c1 [Compound 1f2r]	SGC-7901 early differentiation gastric cancer cell	> 100 µM

###

# System: HepG2 hepatoma cell
# method notes: MTT anti-proliferative assay, HepG2
# Assay type: cell-based, human
# applied conditions: MTT, 48 h; read-out: IC50 HepG-2
pIC50: −log10 of the molar value.

record smiles	pIC50
N#C/C(=C\c1cccs1)c1ccc(C(F)(F)F)cc1	< 4.00
Cc1cc(C)c(/C=C(\C#N)c2ccc(OC(F)(F)F)cc2)c(C)c1	< 4.00
COc1ccc(/C=C(\C#N)c2ccc(C(F)(F)F)cc2)cc1	< 4.00
N#C/C(=C\c1cccc2ccccc12)c1ccc(C(F)(F)F)cc1	< 4.00
COc1ccc(/C=C(\C#N)c2cccc(OC(F)(F)F)c2)cc1	< 4.00
N#C/C(=C\c1ccccn1)c1cccc(OC(F)(F)F)c1	4.67
N#C/C(=C\c1ccc(/C=C(\C#N)c2ccc(C(F)(F)F)cc2)cc1)c1ccc(C(F)(F)F)cc1	< 4.00
N#C/C(=C\c1cccc2ccccc12)c1ccc(OC(F)(F)F)cc1	< 4.00
N#C/C(=C\c1ccc(Br)cc1)c1ccccc1OC(F)(F)F	4.55

###

# Test system: AGS gastric cancer cell
# method notes: MTT anti-proliferative assay, AGS
# Format: cell-based, human
# Method: The anti-proliferation activities of the synthesized analogs were assessed by an in vitro MTT assay conducted on thirteen human cell lines. Their cytotoxic activities were evaluated by measuring the inhibition of net cell growth. […] 1.6. Cell lines and cell culture MTT was purchased from Sigma-Aldrich Co. (St. Louis, MO, USA). The PI and Annexin V-FITC apoptosis detection kit were purchased from Invitrogen (Eugene, OR, USA). […] the anti-proliferative activities were determined by MTT assay. […]
Quick reference for SI (selectivity index), IC50 (L-02)/IC50 (AGS) among some compounds
measure name: SI (selectivity index), IC50 (L-02)/IC50 (AGS)

record smiles	observed result
N#C/C(=C\c1ccc(/C=C/C(=O)c2ccc(F)cc2)cc1)c1ccc(OC(F)(F)F)cc1	> 3.9
Cc1ccc(/C=C(\C#N)c2ccc(C(F)(F)F)cc2)cc1	> 2.4
N#C/C(=C\c1ccc(N2CCCC2)cc1)c1ccc(OC(F)(F)F)cc1	> 1.1
N#C/C(=C\c1ccc(Br)cc1)c1ccccc1OC(F)(F)F	> 2.5
N#C/C(=C\c1ccc(Br)cc1)c1ccc(OC(F)(F)F)cc1	> 5.0
CCc1ccc(/C=C(\C#N)c2cccc(OC(F)(F)F)c2)cc1	> 2.2
CCCOc1ccc(/C=C(\C#N)c2ccc(OC(F)(F)F)cc2)cc1	> 1.4
COc1ccc(/C=C(\C#N)c2ccc(OC(F)(F)F)cc2)cc1	> 4.7
N#C/C(=C\c1ccc(Br)cc1)c1cccc(OC(F)(F)F)c1	> 3.5
N#C/C(=C\c1ccc(N2CCOCC2)cc1)c1cccc(OC(F)(F)F)c1	> 1.1
N#C/C(=C\c1ccc(Cl)cc1)c1ccccc1OC(F)(F)F	> 3.1
N#C/C(=C\c1ccc(C(F)(F)F)cc1)c1ccc(C(F)(F)F)cc1	> 1.8
CCc1ccc(/C=C(\C#N)c2ccc(OC(F)(F)F)cc2)cc1	> 6.8
Cc1ccc(/C=C(\C#N)c2ccccc2OC(F)(F)F)cc1	> 15.6
Cc1ccc(/C=C(\C#N)c2ccc(OC(F)(F)F)cc2)cc1	> 3.2
N#C/C(=C\c1ccccc1C(F)(F)F)c1ccc(C(F)(F)F)cc1	> 2.1
CC(C)c1ccc(/C=C(\C#N)c2ccc(OC(F)(F)F)cc2)cc1	> 11.4
COc1ccc(/C(C#N)=C/c2cc(OC)c(OC)c(OC)c2)cc1	> 2.8
